Tested Target: T1, Human ANGPTL4(26-406)-FLAG-His6-Avi (human, UniProt Q9BY76 24-406, biotin on the C-terminal Avi tag in the biotinylated preparations (immobilised form in SET, ELISA and Octet))
T1 construct: also called full-length human ANGPTL4; hANGPTL4
T1 sequence: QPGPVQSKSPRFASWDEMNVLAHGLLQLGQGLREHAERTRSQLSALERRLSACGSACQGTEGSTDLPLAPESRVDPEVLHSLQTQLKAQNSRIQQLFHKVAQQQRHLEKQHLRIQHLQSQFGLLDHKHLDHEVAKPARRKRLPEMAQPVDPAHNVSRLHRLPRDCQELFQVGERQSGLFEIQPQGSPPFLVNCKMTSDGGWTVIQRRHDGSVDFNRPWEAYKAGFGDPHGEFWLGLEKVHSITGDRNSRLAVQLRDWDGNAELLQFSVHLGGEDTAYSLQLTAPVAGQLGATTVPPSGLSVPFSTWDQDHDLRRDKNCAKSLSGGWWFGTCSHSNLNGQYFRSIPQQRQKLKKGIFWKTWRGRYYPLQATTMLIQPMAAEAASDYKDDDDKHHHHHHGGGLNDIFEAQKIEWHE
Assay Summary: ForteBio Octet, biotinylated antigen on streptavidin sensor, antibody in solution
Parameter Measured: pKd
Quick note: pKd means taking -log10 of the concentration in moles per liter.

>  <Binder>
MOR021798 (antibody, human IgG1, lambda, V domains shown, human IgG1) VH: QVQLLESGGGLVQPGGSLRLSCAASGFTFSDYALHWVRQAPGKGLEWVSRISYMGSSTYYADSVKGRFTISRDNSKNTLYLQMNSLRAEDTAVYYCAREHYYSSPMGGVAVDNWGQGTLVTVSS VL: DIVLTQPPSVSGAPGQRVTISCSGSSSNIGYNTVSWYQQLPGTAPKLLIYSNNIRPSGVPDRFSGSKSGTSASLAITGLQAEDEADYYCSSWDFLIKSLVFGGGTKLTVLG

>  <pKd>
9.35

$$$$
>  <Binder>
MOR021792 (antibody, human IgG1, lambda, V domains shown) VH: QVQLLESGGGLVQPGGSLRLSCAASGFTFSDYAMDWVRQAPGKGLEWVSKISYDGSYTYYADSVKGRFTISRDNSKNTLYLQMNSLRAEDTAVYYCARPSMSYYIIPAGFDVWGQGTLVTVSS VL: DIELTQPPSVSVSPGQTASITCSGDALGVKRASWYQQKPGQAPVLVIYKDNNRPSGIPERFSGSNSGNTATLTISGTQAEDEADYYCSVRTWSMNLYVFGGGTKLTVLG

>  <pKd>
9.74

$$$$

// next item, pKd requested
Field request: pKd | item: MOR021800 (antibody, human IgG1, lambda, V domains shown, human IgG1) VH: QVQLVQSGAEVKKPGESLKISCKGSGYSFSTYWISWVRQMPGKGLEWMGIIDPSNSDTRYSPSFQGQVTISADKSISTAYLQWSSLKASDTAMYYCARVYGYVYMDVWGQGTLVTVSS VL: DIELTQPPSVSVSPGQTASITCSGDNLGKKYAYWYQQKPGQAPVLVIYDKTKRPSGIPERFSGSNSGNTATLTISGTQAEDEADYYCASYDWYSSSYVFGGGTKLTVLG
9.87
